Reference source: patent US20110300138A1

System name: T1, human TSH receptor (full length), coated on tubes (human, UniProt P16473 22-764)
T1 construct: TSHR coated tubes as described in WO2004/050708A2; The receptor is full length and held on plastic tubes through a mouse MAb to the TSHR; also called thyroid stimulating hormone receptor
Assay details: inhibition of 125I-K1-70 Fab (competitor) binding to TSHR coated tubes; 1 µg/mL in HBD serum pool
Endpoint name: Inhibition of binding (%)
Answer with a number only, understood to be in %.

Example binders with recorded Inhibition of binding (%):
Binder: K1-18 Fab (Fab, V domains shown) VH: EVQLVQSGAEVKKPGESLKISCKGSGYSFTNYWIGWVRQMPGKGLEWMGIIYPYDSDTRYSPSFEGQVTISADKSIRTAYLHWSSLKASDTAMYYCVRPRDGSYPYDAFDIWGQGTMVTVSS VL: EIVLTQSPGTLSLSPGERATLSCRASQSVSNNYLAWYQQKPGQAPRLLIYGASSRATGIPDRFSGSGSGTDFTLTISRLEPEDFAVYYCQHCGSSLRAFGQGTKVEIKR
Unit annotation: %
Readout number: 78.7
//
Binder: K1-70 IgG (antibody, V domains shown, Human IgG1 lambda purified from hetero-hybridoma supernatant; also called human monoclonal autoantibody to the TSHR with TSH antagonist activity) VH: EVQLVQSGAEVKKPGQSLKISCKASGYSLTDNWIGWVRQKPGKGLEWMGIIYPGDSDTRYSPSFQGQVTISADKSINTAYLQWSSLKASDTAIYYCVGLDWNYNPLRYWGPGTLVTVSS VL: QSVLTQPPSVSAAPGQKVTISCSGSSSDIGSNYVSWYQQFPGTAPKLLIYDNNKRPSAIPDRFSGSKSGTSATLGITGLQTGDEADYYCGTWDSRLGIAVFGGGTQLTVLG
Unit annotation: %
Readout number: 94.1
//
Binder: K1-18 IgG (antibody, V domains shown, Human IgG1 kappa purified from hetero-hybridoma supernatant; also called human monoclonal autoantibody to the TSHR with TSH agonist activity) VH: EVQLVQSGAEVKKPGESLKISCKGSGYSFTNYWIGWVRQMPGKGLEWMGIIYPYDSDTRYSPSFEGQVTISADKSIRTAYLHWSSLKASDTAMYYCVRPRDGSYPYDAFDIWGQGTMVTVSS VL: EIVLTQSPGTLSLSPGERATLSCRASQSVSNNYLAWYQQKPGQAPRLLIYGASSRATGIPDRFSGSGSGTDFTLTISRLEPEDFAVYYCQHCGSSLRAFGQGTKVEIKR
Unit annotation: %
Readout number: 89.4

Task: Query: Inhibition of binding (%); subject: K1-70 Fab (Fab, V domains shown) VH: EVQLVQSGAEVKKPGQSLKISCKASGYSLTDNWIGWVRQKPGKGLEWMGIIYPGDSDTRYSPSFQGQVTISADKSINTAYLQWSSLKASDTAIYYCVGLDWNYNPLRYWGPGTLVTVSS VL: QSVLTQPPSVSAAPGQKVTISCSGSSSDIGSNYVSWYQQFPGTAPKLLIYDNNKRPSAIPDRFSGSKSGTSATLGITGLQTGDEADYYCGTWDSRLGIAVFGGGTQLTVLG
Output: 94.2
